test system: rat cytochrome P4503A; conditions: oil ingredient at 0.0001 wt % (Table 2)
OBSERVABLE: % inhibition (0.0001%)
One number for each entry, in %.

Hi there! I need % inhibition (0.0001%) for each item below, if you can.
1. CC(C)=C1CC[C@@H](C)CC1=O [Pulegone-(R)-(+), p-Menth-4-(8)-en-3-one]
2. C=C(C)C1CC=C(C)C(O)C1 (single isomer, unassigned) [Carveol-(-), p-Mentha-6,8-dien-2-ol]
3. Cc1ccc(C(C)C)cc1O [Carvacrol, 5-isoPropyl-2-methylphenol]

-17
2
11

----------
tested on: rat cytochrome P4503A; details: oil ingredient at 0.001 wt % (Table 2)
Short version: % inhibition (0.001%) at least 60% is met, less is not met.

# example entries with known answers
{"MOLECULE": "CC(C)=CCC/C(C)=C/C=O [Citral]", "LABEL": "not met"}
{"MOLECULE": "CC1=CC=C(C(C)C)CC1 [Terpinene-α, p-Mentha-1,3-diene]", "LABEL": "not met"}
{"MOLECULE": "C=CC(C)(O)CCC=C(C)C (racemic) [Linalcol-(±), 3,7-Dimethyl-1,6-octadien-3-ol]", "LABEL": "met"}
{"MOLECULE": "CC12CCC(CC1=O)C2(C)C (racemic) [Camphor-(±)]", "LABEL": "not met"}
{"MOLECULE": "C=CCc1ccc(OC)cc1 [Entragole, 4-Allylanisole]", "LABEL": "met"}
{"MOLECULE": "C=C(C)[C@H]1CC=C(C)C(=O)C1 [Carvone-(S)-(+), p-Mentha-6,8-dien-2-one]", "LABEL": "met"}

Tell me whether % inhibition (0.001%) is at least 60% here: COC(=O)c1ccccc1O [Methyl Salicylate, Methyl-2-hydroxybenzoate]
not met

Another: C=C(C)[C@@H]1CC=C(C)C(=O)C1 [Carvone-(R)-(-), p-Mentha-6,8-dien-2-one]
met
